biological target: Urotensin-2 receptor (Homo sapiens); assay: Agonist activity against human urotensin 2 receptor expressed in […] cells assessed as beta-galactosidase activity after 5 days by R-SAT assay
pEC50: −log10 of the molar value.
measurement-name: pEC50

{"compound": "O=C(NC(CCN1CCCCC1)c1ccc(Cl)cc1)c1ccc(-c2ccccc2)cc1 (stereo not given)", "tested-target": "Urotensin-2 receptor (Homo sapiens)", "observed-result": 6.18}
{"compound": "COc1ccc(-c2ccc(C(=O)NC(CCN(C)C)c3ccc(C)cc3)cc2)cc1 (stereo not given)", "tested-target": "Urotensin-2 receptor (Homo sapiens)", "observed-result": 6.46}

[A] CN(C)CCC(NC(=O)c1cccc(-c2ccc(Cl)cc2)c1)c1ccc2ccccc2c1 (stereo not given)
[B] COc1ccc(-c2ccc(C(=O)NC(CCN(C)C)c3ccc(Cl)cc3)cc2)cc1 (stereo not given)
Task: Returns the identifier with the smallest measured pEC50 among A and B . In your reply, give the label of the chosen option.
Result: A
(A: 5.96, B: 7.13)

###

target: Urotensin-2 receptor (Homo sapiens) (UniProt Q9UKP6); test: Agonist activity against human urotensin 2 receptor expressed in […] cells assessed as beta-galactosidase activity after 5 days by R-SAT assay relative to urotensin 2; format: functional, cell-based
Sequence (Q9UKP6 whole entry): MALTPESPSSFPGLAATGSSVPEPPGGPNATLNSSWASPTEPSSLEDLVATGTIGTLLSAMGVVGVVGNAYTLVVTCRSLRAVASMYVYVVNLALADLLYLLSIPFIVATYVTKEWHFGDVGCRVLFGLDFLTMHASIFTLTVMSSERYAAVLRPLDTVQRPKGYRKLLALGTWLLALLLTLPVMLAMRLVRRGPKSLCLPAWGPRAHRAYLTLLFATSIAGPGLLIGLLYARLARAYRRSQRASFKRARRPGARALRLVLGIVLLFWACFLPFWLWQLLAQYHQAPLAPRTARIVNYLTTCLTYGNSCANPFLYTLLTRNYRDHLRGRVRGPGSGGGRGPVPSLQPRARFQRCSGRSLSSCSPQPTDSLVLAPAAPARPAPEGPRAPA
measurement-name: Efficacy

Here is how some compounds turned out for Efficacy.
{"compound": "CN(C)CCC(NC(=O)c1ccc(-c2ccc3ccccc3c2)cc1)c1ccc2ccccc2c1 (stereo not given)", "Efficacy": "77%"}
{"compound": "CO[C@@H](C(=O)N[C@@H](CCN(C)C)c1ccc2ccccc2c1)c1ccccc1", "Efficacy": "140%"}
{"compound": "Cc1ccc(C(CCN(C)C)NC(=O)c2cccc(-c3ccc(Cl)cc3)c2)cc1 (stereo not given)", "Efficacy": "39%"}
{"compound": "CO[C@@H](C(=O)N[C@@H](CCN(C)C)c1ccc(Cl)cc1)c1ccccc1", "Efficacy": "165%"}

Task: Name the recorded Efficacy for CN(C)CC[C@@H](NC(=O)c1ccc(-c2ccccc2)cc1)c1ccc(Cl)cc1 .
Result: 96%

###

target: Urotensin-2 receptor (Homo sapiens, UniProt Q9UKP6); test: Agonist activity against human urotensin 2 receptor expressed in […] cells assessed as beta-galactosidase activity after 5 days by R-SAT assay; type: functional, cell-based
Sequence (Q9UKP6 whole entry): as above
measurement-name: EC50 (nM)

Below, 5 compounds whose answers are already recorded.
{"compound": "CN(C)CCC(NC(=O)c1cccc(-c2ccc3ccccc3c2)c1)c1ccc2ccccc2c1 (stereo unspecified)", "EC50, nM": 3470}
{"compound": "CN(C)CCC(NC(=O)c1cccc(-c2ccc3ccccc3c2)c1)c1ccc(Cl)cc1 (stereo unspecified)", "EC50, nM": 363}
{"compound": "CN(C)CCC(NC(=O)c1ccc(-c2ccc3ccccc3c2)cc1)c1ccc2ccccc2c1 (stereo unspecified)", "EC50, nM": 525}
{"compound": "CN(C)CCCC(NC(=O)c1ccccc1)c1ccc(Cl)cc1 (stereo unspecified)", "EC50, nM": 3800}
{"compound": "CN(C)CC[C@@H](NC(=O)c1ccc(-c2ccc(Cl)cc2)cc1)c1ccc2ccccc2c1", "EC50, nM": 457}

[a] COc1ccc(-c2ccc(C(=O)NC(CCN(C)C)c3ccc4ccccc4c3)cc2)cc1 (stereo unspecified)
[b] CN(C)CCC(NC(=O)c1ccc(-c2ccc(Cl)cc2)cc1)c1ccc2ccccc2c1 (stereo unspecified)
Task: Rank a against b by their EC50 values and give the higher one. The response must carry the label of the picked entry.
Result: a
(a: 105 nM, b: 43.7 nM)

[P] CN(C)CCC(NC(=O)c1cccc(-c2ccc(Cl)cc2)c1)c1ccc(Cl)cc1 (stereo unspecified)
[Q] CO[C@@H](C(=O)N[C@@H](CCN(C)C)c1ccc2ccccc2c1)c1ccccc1
[R] O=C(NC(CCN1CCCCC1)c1ccc(Cl)cc1)c1ccccc1 (stereo unspecified)
Task: Ascending by EC50, please: list the compounds accordingly. // format: requested-order list of labels
Result: P, Q, R
